Listed here are compounds together with their documented solubility at 24 h.
- experiment-notes: Solubility measurement (DMSO solution precipitation method)
- Format: physicochemical
- details: aqueous buffer, kinetic from dmso stock, McIlvaine buffer pH 4.5, 24 h, read-out: solubility pH 4.5

Previously resolved entries follow.
structure_as_smiles=CO[C@@H]1C[C@@H]([C@H](C)Oc2nc(-c3noc4c3CCC[C@@]43CCCc4sc(N)c(C#N)c43)nc3c2CN(C2COC2)C[C@]32CCOC2)N(C)C1 reading="> 149 µg/mL"
structure_as_smiles=C[C@H](Oc1nc(-c2noc3c2CCC[C@@]32CCCc3sc(N)c(C#N)c32)nc2c1n(C)c(=O)n2[C@@H]1CCOC1)[C@@H]1CCCN1C reading="> 154 µg/mL"
structure_as_smiles=C[C@H](Oc1nc(-c2onc3c2CCC[C@@]32CCCc3sc(N)c(C#N)c32)nc2c1n(C)c(=O)n2[C@@]12COC[C@@H]1C2)[C@@H]1CC[C@H](C)N1C reading="> 135 µg/mL"
structure_as_smiles=CO[C@@H]1C[C@@H]([C@H](C)Oc2nc(-c3onc4c3CCC[C@@]43CCCc4sc(N)c(C#N)c43)nc3c2n(C)c(=O)n3[C@H]2COC[C@@H](C)C2)N(C)C1 reading="> 153 µg/mL"
structure_as_smiles=C[C@H](Oc1nc(-c2noc3c2CCC[C@@]32CCCc3sc(N)c(C#N)c32)nc2c1COC[C@@]21CCOC1)[C@@H]1CCCN1C reading="> 141 µg/mL"

Given the compound CO[C@H]1CCN(C)[C@@H]1[C@H](C)Oc1nc(-c2onc3c2CCC[C@@]32CCCc3sc(N)c(C#N)c32)nc2c1CN(C1COC1)C[C@]21CCOC1 , what is its reported solubility at 24 h?
> 167 µg/mL
